Please respond with reported Tm for every item in the list.
assay: melting temperature; fluorescence melt of hairpins on a sequencing array, two-state fit, raised by 9.35 °C to match UV melts; conditions: sodium 0.088 M
Supply the numeric figure in °C, leaving out any unit text.

// Tm value for GTAACGGCGAAAGCCTAC (((..(((....)))))) : 20.7

// Tm value for GCATCGCGAAAGCCGTGC (((..((....))..))) : 45.1

// Tm value for ATCAGTGAGAAATCACTGAA .................... : 46.2

// Tm value for GTCGTTGGAAACAGCGAC ((((.((....)).)))) : 52.4

// Tm value for GATCTCAAGGAGATC ((((((...)))))) : 54.2

// Tm value for GGTAGGGGAAACCCTACC (((((((....))))))) : 64.6

// Tm value for GGTCACCGAAAGGTTACC (((.(((....))).))) : 50.1

// Tm value for GATCTTAGAGAAGATC ((((((....)))))) : 37.7

// Tm value for GGTTTCCGAAAGGACACC (((.(((....))).))) : 49

* * *

assay: melting temperature; fluorescence melt of hairpins on a sequencing array, two-state fit, raised by 9.35 °C to match UV melts; details: sodium 0.088 M
Please respond with reported Tm for every item in the list.
Supply the numeric figure in °C, leaving out any unit text.

// Tm value for GGTATTCGAAAGAACACC (((.(((....))).))) : 39.3

// Tm value for GATCCTATCCAGGATC ((((((....)))))) : 53

// Tm value for GTCCGCGGAAACGCAGAC (((.(((....))).))) : 49.9

// Tm value for GAGCTGGGAAACTGGCTC ((((..(....)..)))) : 46.7

// Tm value for GATGACGGAAACGTCATC (((((((....))))))) : 67.5

// Tm value for GTGTTAGGAAACTGACAC ((((.((....)).)))) : 46.1

// Tm value for GCCACGCGAAAGCCAGGC (((..((....))..))) : 50.2

// Tm value for GATCGCTCGTGCGATC ((((((....)))))) : 67.2

// Tm value for GTGTAACGAAAGTTGCAC (((.(((....))).))) : 53.6

// Tm value for GATCGACGGTCGATC ((((((...)))))) : 51.2

* * *

Please respond with reported folding enthalpy for every item in the list.
assay: folding enthalpy; higher = less favourable; fluorescence melt of hairpins on a sequencing array, two-state fit; conditions: sodium 0.088 M
Record the result as a number with its unit.

// folding enthalpy value for GGAGAACCGAAAGGTTCC (((..(((....)))))) : -9.16 kcal/mol

// folding enthalpy value for GATCTAGGTCTAGATC ((((((....)))))) : -37.1 kcal/mol

// folding enthalpy value for GGGTCGCGAAAGCGCCC (((.(((....)))))) : -22.4 kcal/mol

* * *

test: melting temperature; fluorescence melt of hairpins on a sequencing array, two-state fit, raised by 9.35 °C to match UV melts; details: sodium 0.088 M
Value type: Tm (°C)
Supply the numeric figure in °C, leaving out any unit text.

// Tm value for GATCCTATCTAGGATC ((((((....)))))) : 52.7

// Tm value for GTCGCCGAAAGGCCGGAC ((((((....)))..))) : 41.6

// Tm value for GATCCTTGCTAGGATC ((((((....)))))) : 53.7

// Tm value for GCCCACGGAAACGCGAGC ((.(.((....)).).)) : 28

// Tm value for GCGTAACAACGC ((((....)))) : 52.9

// Tm value for GATCTCGTTTGAGATC ((((((....)))))) : 55.6

// Tm value for GTCCCGGGAAACCGGGGC (.(((((....))))).) : 64.3

// Tm value for GTGCCCGAAAGGGTTCAC ((((((....)))..))) : 41.1

// Tm value for GTCACTGGAAACAGTGAC (((((((....))))))) : 63

// Tm value for GCGTCGTACGC ((((...)))) : 65.6

// Tm value for GGGACAGGAAACTGTTCC ((.((((....)))).)) : 51.4

// Tm value for CGCTCCGGAAACGGTGCG (((.(((....))).))) : 60.2

// Tm value for GCCGAGGGAAACCTTGGC (((.(((....))).))) : 58.3

// Tm value for CGAGAACGGAAACGTTCG (((..(((....)))))) : 52.9

// Tm value for GCTCCCGAAAGGGACAGC ((((((....)))..))) : 44.7

// Tm value for GCTCCGCGAAAGCGTCGC ((..(((....)))..)) : 35.2

// Tm value for GCATGCGAAAGCACGTGC ((((((....)))..))) : 39.8

// Tm value for GCAGATCCGAAAGGATGC (((..(((....)))))) : 45.2

// Tm value for GAATGCGAAAGCAGCTTC ((((((....)))..))) : 39.7

// Tm value for GAGTTAGGAAACTGACTC ((((.((....)).)))) : 42.4

// Tm value for GATCACTCATGTGATC ((((((....)))))) : 57

// Tm value for GACATTGGAAACAATGTC (((((((....))))))) : 56.6

// Tm value for GTTTGTCGAAAGACTAAC (((.(((....))).))) : 45.8

// Tm value for GACAGCGAAAGCTCGGTC ((((((....)))..))) : 46.8

// Tm value for GCAGACGAAAGTCGTGC ((((((....))).))) : 54.1

// Tm value for GATCGGGGCCCCGATC ((((((....)))))) : 68.6

// Tm value for GGCCTCGAAAGAGGCGCC ((((((....)))..))) : 66.5

* * *

test: melting temperature; fluorescence melt of hairpins on a sequencing array, two-state fit, raised by 9.35 °C to match UV melts; conditions: sodium 0.088 M
Please respond with reported Tm for every item in the list.
Supply the numeric figure in °C, leaving out any unit text.

// Tm value for GATCCGCTCCGGATC ((((((...)))))) : 59.2

// Tm value for GAAATCCGAAAGGAATTC (((.(((....))).))) : 40.9

// Tm value for GCGTTGCGAAAGCATAGC ((..(((....)))..)) : 58.4

// Tm value for GATCTATACCTAGATC ((((((....)))))) : 43.2

// Tm value for GGGAGACCGAAAGGTCCC (((..(((....)))))) : 53.2

// Tm value for GGACTCGGAAACGAGTTC (.(((((....))))).) : 53.6

// Tm value for GCAGAGACGAAAGTCTGC (((..(((....)))))) : 51.7

// Tm value for GCCGTAGGAAACTGTGGC (((..((....))..))) : 43.3

// Tm value for GCATCCGAAAGGAGCTGC ((((((....)))..))) : 50.6

// Tm value for GATCCCGCAGGGGATC ((((((....)))))) : 65.5

// Tm value for GATCCCCGTAGGGATC ((((((....)))))) : 61.9

// Tm value for GCAATGGGAAACCATTAC (.(((((....))))).) : 33.9

// Tm value for GCCCTTCGAAAGAAAGGC (((.(((....))).))) : 45.1

// Tm value for GTCCTACGAAAGTACGAC (((.(((....))).))) : 35.2

// Tm value for GATCCTCTTCAGGATC ((((((....)))))) : 51.3

// Tm value for GATCCACGCGTGGATC ((((((....)))))) : 64.4

// Tm value for GGCCCCGAAAGGGAGGCC ((((((....)))..))) : 64.5

// Tm value for GGGAGTCGAAAGACACCC (((.(((....))).))) : 56.9

// Tm value for GCTCTGCGAAAGCGAAGC (((..((....))..))) : 40.8

// Tm value for GGTCCGCGAAAGCGTACC (((.(((....))).))) : 54.1

// Tm value for GTGAGCGGAAACGTTCAC ((((.((....)).)))) : 52.8

// Tm value for GACACCGGAAACGATGTC ((((.((....)).)))) : 45.2

// Tm value for GTCCTCGAAAGAGGAGAC ((((((....)))..))) : 47.8

// Tm value for GCACAGCGAAAGCGCTGC (((..((....))..))) : 49.2

// Tm value for GATCATCTAGATGATC ((((((....)))))) : 52.7

// Tm value for GAAGCCGAAAGGCGTTTC ((((((....)))..))) : 44.7

// Tm value for GATCTACGCATAGATC ((((((....)))))) : 42.7

// Tm value for GATCGTGCTACGATC ((((((...)))))) : 57.3

// Tm value for GCTTCGCGAAAGCGATGC ((.((((....)))).)) : 65.7

// Tm value for GCAGCCTCGAAAGAGTGC (((..(((....)))))) : 37

// Tm value for GCTGAGCGAAAGCGCTGC ((.(.((....)).).)) : 54.7

// Tm value for GAGCTACGAAAGTACTC (((.(((....)))))) : 39.1

// Tm value for GGGCCCGAAAGGGAACCC ((((((....)))..))) : 57.5

// Tm value for GGGGGTGGAAACGCCCCC (((((.(....).))))) : 66.9

// Tm value for GCGGGGCGAAAGCACAGC ((.(.((....)).).)) : 65.4

// Tm value for GATCAATACGTTGATC ((((((....)))))) : 48

// Tm value for GCGACTGGAAACAGTCAC (.(((((....))))).) : 48.2

// Tm value for GCGTGCGTACGC ((((....)))) : 64.8

// Tm value for GTGCAACGAAAGTTTCAC (((.(((....))).))) : 41

// Tm value for GTTCGACGAAAGTCCAAC (((.(((....))).))) : 34.5

// Tm value for GTATCCGAAAGGATCTAC ((((((....)))..))) : 39.1

// Tm value for GATCATTTTATGATC ((((((...)))))) : 51.4

// Tm value for GATCGAGTTCTCGATC ((((((....)))))) : 55.9

// Tm value for GTGCTCGGAAACGAGTGC (..((((....))))..) : 50.4

// Tm value for GCACACGAAAGTGACTGC ((((((....)))..))) : 37.6
